Test system: p38a activated, mitogen-activated protein kinase-activated protein kinase 2 (MAPKAP-K2 or MK2) enzyme (Homo sapiens (Human), UniProt P49137)
Sequence (P49137 whole entry): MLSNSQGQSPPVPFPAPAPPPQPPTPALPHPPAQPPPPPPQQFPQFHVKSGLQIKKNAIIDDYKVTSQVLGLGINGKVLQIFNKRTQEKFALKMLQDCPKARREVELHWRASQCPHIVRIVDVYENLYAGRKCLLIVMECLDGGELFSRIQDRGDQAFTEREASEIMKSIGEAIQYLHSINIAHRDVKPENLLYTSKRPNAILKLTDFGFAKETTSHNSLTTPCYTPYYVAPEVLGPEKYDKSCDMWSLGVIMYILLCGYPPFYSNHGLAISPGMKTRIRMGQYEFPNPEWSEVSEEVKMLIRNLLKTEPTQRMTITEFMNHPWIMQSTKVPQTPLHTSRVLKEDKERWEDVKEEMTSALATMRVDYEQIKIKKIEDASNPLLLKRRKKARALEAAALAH
Assay notes: MK2 Omnia continuous-read kinase assay for compound potency
Experimental setup: [MK-2]=0.4 nM, [ATP]=10 μM, [ST3-Sox]=10 μM; room temperature
pIC50: −log10 of the molar value.
Measured metric: pIC50

C=Cc1nn(C)cc1-c1ccc2c(ccc3sc4c(c32)NC[C@@H](C)NC4=O)n1	7.36
C=Cc1cc(-c2ccc3c(ccc4sc5c(c43)NC[C@@H](C)NC5=O)n2)cc(N2CCC(C(F)(F)F)CC2)n1	6.17
C=Cc1cc(-c2ccc3c(ccc4sc5c(c43)NC[C@@H](C)NC5=O)n2)cc(N2CCC(F)CC2)n1	6.79
[2H]C([2H])([2H])N1CCN(c2cc(-c3ccc4c(ccc5sc6c(c54)NC[C@@H](C)NC6=O)n3)cc(C=C)n2)CC1	7.89
C[C@@H]1CNc2c(sc3ccc4nc(-c5cc(Cl)nc(C6CCN(C)CC6)c5)ccc4c23)C(=O)N1	7.34
C#Cc1cncc(-c2ccc3c(ccc4sc5c(c43)NC[C@@H](C)NC5=O)n2)c1	7.08
C[C@@H]1CNc2c(sc3ccc4nc(-c5cnc(Cl)[nH]5)ccc4c23)C(=O)N1	7.64
C#Cc1ncc(CO)c(-c2ccc3c(ccc4sc5c(c43)NC[C@@H](C)NC5=O)n2)n1	6.25
C#Cc1cc(-c2ccc3c(ccc4sc5c(c43)NC[C@@H](C)NC5=O)n2)cc(N2CCC(OC)CC2)n1	6.72
C[C@@H]1CNc2c(sc3ccc4nc(-c5cc(C#CC(C)(C)N)nc(Cl)n5)ccc4c23)C(=O)N1	6.84

P = C[C@@H]1CNc2c(sc3ccc4nc(-c5cc(Cl)nc(COC6CCN(C)CC6)n5)ccc4c23)C(=O)N1
Q = C=Cc1cc(-c2ccc3c(ccc4sc5c(c43)NC[C@@H](C)NC5=O)n2)c(C)c(C)n1
R = C#Cc1nccc(-c2ccc3c(ccc4sc5c(c43)NC[C@@H](C)NC5=O)n2)c1C
Problem: Task for the reader: rank each entry by its pIC50, from the minimum upward. Hello, could you send the labels back in the order asked? Thank you.
Result: R, P, Q
(R: 6.75, P: 8.00, Q: 8.30)

Data origin: patent US20240190890A1
